tested on: SKNSH; assay: Cancer cell growth inhibition, Sulforhodamine B; assay type: cell-based; conditions: Homo sapiens, SK-N-SH, 72 h, SKNSH (brain), Non-Responder Cell Lines with IC50 >10 uM or Not Determined
endpoint: IC50

Task: Answer with reported IC50 of CC(C)(O)c1cc(-c2csc(-c3ccc(C(=O)N4CCC(O)CC4)cc3Cl)c2)ccn1 [Compound 1]
Result: > 10 µM

---

experiment: Half-life in rat liver microsomes; assay type: in vitro ADME; settings: read-out: Rat LM: Half life
endpoint: half-life at 1 µM (h)
Give your result in h as a bare value.

Task: Provide one value: measured half-life at 1 µM of CC(C)(O)c1cc(-c2csc(-c3ccc(C(=O)N4CCC(O)CC4)cc3Cl)c2)ccn1
Result: 1.68

---

tested on: A204; assay: Cancer cell growth inhibition, Sulforhodamine B; assay type: cell-based; details: Homo sapiens; A204 (muscle), 72 hr; Responder Cell Lines
pIC50: −log10 of the molar value.
endpoint: pIC50

Task: Give a short answer stating reported pIC50 for CC(C)(O)c1cc(-c2csc(-c3ccc(C(=O)N4CCC(O)CC4)cc3Cl)c2)ccn1 [Compound 1] .
Result: > 5.00

---

experiment: In vivo pharmacokinetics, intravenous; conditions: mouse, plasma, male C57 BL/6 mice, dose 2.00 mg/kg (Compound 1), 2.43 mg/kg (Compound 2)
Kindly state C0 for each of the entries shown.
Numbers only here, please. The scale is ng/mL.

Task: Tell me its C0 given CC(C)(O)c1cc(-c2csc(-c3ccc(C(=O)N4CCC(O)CC4)cc3Cl)c2)ccn1 as the entry.
Result: 4630

Task: Using known records, supply C0 for CC(C)(CO)c1cc(-c2csc(-c3ccc(C(=O)N4CCC(O)CC4)cc3Cl)c2)ccn1 [Compound 2, reference compound]
Result: 2670

---

tested on: PANC1005; assay: Cancer cell growth inhibition, Sulforhodamine B; format: cell-based; settings: Homo sapiens, Panc1005, 72 h, PANC1005 (pancreas), Non-Responder Cell Lines with IC50 >10 uM or Not Determined
pIC50: −log10 of the molar value.
endpoint: pIC50

Task: Entry CC(C)(O)c1cc(-c2csc(-c3ccc(C(=O)N4CCC(O)CC4)cc3Cl)c2)ccn1 [Compound 1] needs its pIC50 filled in; supply it.
Result: < 5.00

---

Assay: In vivo pharmacokinetics, intravenous
Conditions: mouse, plasma, male C57 BL/6 mice, dose 2.00 mg/kg (Compound 1), 2.43 mg/kg (Compound 2)
Experimental: The in vivo pharmacokinetic properties of Compound 1 by both intravenous and oral administration were evaluated in male C57 BL/6 mice. The in vivo pharmacokinetic properties of Compound 2 by both intravenous and oral administration were evaluated in male C57 BL/6 mice for comparison. Animals were housed in cages with clean bedding. Certified rodent diet was provided. Water was available ad libitum. […]
endpoint: AUC(0-t) (ng·h/mL)
Expressed in ng·h/mL, but write only the number.

Task: For the compound CC(C)(O)c1cc(-c2csc(-c3ccc(C(=O)N4CCC(O)CC4)cc3Cl)c2)ccn1 , report AUC(0-t).
Result: 23800

Task: Quote AUC(0-t) reported for CC(C)(CO)c1cc(-c2csc(-c3ccc(C(=O)N4CCC(O)CC4)cc3Cl)c2)ccn1 [Compound 2, reference compound] please.
Result: 2810

---

system: C33A; assay: Cancer cell growth inhibition, Sulforhodamine B; format: cell-based; conditions: Homo sapiens, C-33-A; 72 hr; Responder Cell Lines
endpoint: IC50

Task: Read the entry CC(C)(O)c1cc(-c2csc(-c3ccc(C(=O)N4CCC(O)CC4)cc3Cl)c2)ccn1 and write its reported IC50.
Result: < 10 µM

---

test system: JAR; assay: Cancer cell growth inhibition, Sulforhodamine B; format: cell-based; conditions: JAR (placenta), 72 hr; Responder Cell Lines
endpoint: IC50

Task: Complete the entry with IC50 for CC(C)(O)c1cc(-c2csc(-c3ccc(C(=O)N4CCC(O)CC4)cc3Cl)c2)ccn1 [Compound 1]
Result: < 10 µM

---

test system: PLCPRF5; assay: Cancer cell growth inhibition, Sulforhodamine B; format: cell-based; settings: Homo sapiens, PLC-PRF-5, 72 h, PLCPRF5 (liver), Responder Cell Lines
endpoint: IC50

Task: Determine its reported IC50: CC(C)(O)c1cc(-c2csc(-c3ccc(C(=O)N4CCC(O)CC4)cc3Cl)c2)ccn1 [Compound 1]
Result: < 10 µM

---

system: NCIH292; assay: Cancer cell growth inhibition, Sulforhodamine B; assay type: cell-based; settings: Homo sapiens, NCI-H292; NCIH292 (lung), 72 hr; Non-Responder Cell Lines with IC50 >10 uM or Not Determined
endpoint: IC50

Task: Consider the compound CC(C)(O)c1cc(-c2csc(-c3ccc(C(=O)N4CCC(O)CC4)cc3Cl)c2)ccn1 [Compound 1] . State its measured IC50.
Result: > 10 µM

---

tested on: RDES; experiment: Cancer cell growth inhibition, Sulforhodamine B; format: cell-based; settings: RD-ES; RDES (bone), 72 hr; Non-Responder Cell Lines with IC50 >10 uM or Not Determined
pIC50: −log10 of the molar value.
endpoint: pIC50

Task: Provide RDES pIC50 reading for CC(C)(O)c1cc(-c2csc(-c3ccc(C(=O)N4CCC(O)CC4)cc3Cl)c2)ccn1 .
Result: < 5.00

---

test: Log D, octanol/aqueous buffer partitioning; type: physicochemical; conditions: 1-octanol/aqueous buffer; 1-octanol/buffer
endpoint: logD
Answer with a bare number; do not write a unit.

Task: Tell me its logD given CC(C)(O)c1cc(-c2csc(-c3ccc(C(=O)N4CCC(O)CC4)cc3Cl)c2)ccn1 as the entry.
Result: 3.38

---

experiment: Half-life in human liver microsomes; type: in vitro ADME; details: NADPH, 37° C., read-out: Human LM: Half life
endpoint: half-life at 1 µM (h)
Give the value, in units of h, as a plain number.

Task: Read the entry CC(C)(O)c1cc(-c2csc(-c3ccc(C(=O)N4CCC(O)CC4)cc3Cl)c2)ccn1 and write its reported half-life at 1 µM.
Result: 1.08

---

test: In vivo pharmacokinetics, intravenous; conditions: mouse, plasma, male C57 BL/6 mice, dose 2.00 mg/kg (Compound 1), 2.43 mg/kg (Compound 2)
Record form. Attribute: clearance. Fill in for each entry.
Numeric answer plus unit only.

Task: Return clearance for the following compound: CC(C)(CO)c1cc(-c2csc(-c3ccc(C(=O)N4CCC(O)CC4)cc3Cl)c2)ccn1 [Compound 2, reference compound]
Result: 14.3 mL/min/kg

Task: For the compound CC(C)(O)c1cc(-c2csc(-c3ccc(C(=O)N4CCC(O)CC4)cc3Cl)c2)ccn1 , give its measured clearance value.
Result: 1.3 mL/min/kg

---

tested on: HCT15; test: Cancer cell growth inhibition, Sulforhodamine B; assay type: cell-based; conditions: Homo sapiens, HCT-15; HCT15 (colon), 72 hr; Responder Cell Lines
pIC50: −log10 of the molar value.
endpoint: pIC50

Task: # return recorded pIC50 for entry CC(C)(O)c1cc(-c2csc(-c3ccc(C(=O)N4CCC(O)CC4)cc3Cl)c2)ccn1 [Compound 1]
Result: > 5.00

---

test system: WSU-NHL; experiment: Cancer cell growth inhibition, Sulforhodamine B; assay type: cell-based; details: Homo sapiens, 72 h, WSU-NHL (hematological), Non-Responder Cell Lines with IC50 >10 uM or Not Determined
pIC50: −log10 of the molar value.
endpoint: pIC50

Task: Identify pIC50 associated with the compound CC(C)(O)c1cc(-c2csc(-c3ccc(C(=O)N4CCC(O)CC4)cc3Cl)c2)ccn1 [Compound 1]
Result: < 5.00

---

Test system: SKMEL28
Assay: Cancer cell growth inhibition, Sulforhodamine B
Type: cell-based
Settings: Homo sapiens, SK-MEL-28; SKMEL28 (skin), 72 hr; Non-Responder Cell Lines with IC50 >10 uM or Not Determined
Protocol: The ability of select compounds to inhibit cell growth in various cancer cell lines are evaluated. […] The cell lines shown in Table 5 have reduced growth by at least 50% at 10 uM or lower over 72 hr treatment in growth media. […] Six 10-fold compound dilutions are prepared in DMSO (e.g. 10 mM, 1 mM, 100 uM, 10 uM, 1 uM, and 0.1 uM). […] Growth inhibition is measured using Sulforhodamine B in a protein staining assay. […]
pIC50: −log10 of the molar value.
endpoint: pIC50

Task: Identify pIC50 associated with the molecule CC(C)(O)c1cc(-c2csc(-c3ccc(C(=O)N4CCC(O)CC4)cc3Cl)c2)ccn1
Result: < 5.00

---

test: Kinetic solubility; type: physicochemical; conditions: aqueous buffer, kinetic from dmso stock, pH 7.4 buffer, room temperature, 1.0% DMSO
endpoint: solubility kinetic at 24 h (µM)
State just the number; it will be interpreted in µM.

Task: Identify measured solubility kinetic at 24 h corresponding to CC(C)(O)c1cc(-c2csc(-c3ccc(C(=O)N4CCC(O)CC4)cc3Cl)c2)ccn1
Result: 37

---

tested on: L-363; assay: Cancer cell growth inhibition, Sulforhodamine B; format: cell-based; details: Homo sapiens; L-363 (hematological), 72 hr; Responder Cell Lines
endpoint: IC50

Task: Please give measured IC50 of the following entry: CC(C)(O)c1cc(-c2csc(-c3ccc(C(=O)N4CCC(O)CC4)cc3Cl)c2)ccn1
Result: < 10 µM
